Data provenance: PubChem BioAssay AID1259407

Tested on: CCRIS mutagenicity, Ames/micronucleus/aberration tests
Experiment: CCRIS mutagenicity studies
Details: Test System: AMES SALMONELLA TYPHIMURIUM; Strain/Indicator: TA100; Metabolic Activation: RAT, LIVER, S-9, AROCLOR 1254; Method: PREINCUBATION
Activity calls are given as the source filed them. No rule for the calls is given here.
Classes used: 1 (active), 0 (inactive)

{"columns": ["compound", "experimentalTarget", "className"],
 "data": [
  ["CC(=O)OCC(O)CO (centres undefined)", "CCRIS mutagenicity, Ames/micronucleus/aberration tests", 0],
  ["O=NO", "CCRIS mutagenicity, Ames/micronucleus/aberration tests", 1],
  ["Cc1cc2c(c3cc4ccccc4cc13)C=C[C@H](O)[C@H]2O", "CCRIS mutagenicity, Ames/micronucleus/aberration tests", 1],
  ["O=C(OCc1cccc([N+](=O)[O-])c1)c1ccccc1", "CCRIS mutagenicity, Ames/micronucleus/aberration tests", 0],
  ["Clc1ccccc1", "CCRIS mutagenicity, Ames/micronucleus/aberration tests", 0],
  ["CC(O)CO (centres undefined)", "CCRIS mutagenicity, Ames/micronucleus/aberration tests", 0],
  ["Oc1cc(Cl)ccc1Cl", "CCRIS mutagenicity, Ames/micronucleus/aberration tests", 0],
  ["CCN(CC)c1ccc2c(C)cc(=O)oc2c1", "CCRIS mutagenicity, Ames/micronucleus/aberration tests", 0],
  ["CC(C)CC=O", "CCRIS mutagenicity, Ames/micronucleus/aberration tests", 0],
  ["COc1ccc(O)cc1", "CCRIS mutagenicity, Ames/micronucleus/aberration tests", 0],
  ["C1O[C@@H]1[C@@H]1CO1", "CCRIS mutagenicity, Ames/micronucleus/aberration tests", 0],
  ["C=CC(=O)NC(C)(C)CC(C)=O", "CCRIS mutagenicity, Ames/micronucleus/aberration tests", 0],
  ["Cc1cc2ccccc2c2cc3ccccc3cc12", "CCRIS mutagenicity, Ames/micronucleus/aberration tests", 1],
  ["O=[N+]([O-])c1cc(O)c2ccc3cccc4ccc1c2c34", "CCRIS mutagenicity, Ames/micronucleus/aberration tests", 1],
  ["CN(C)c1nc2c3cccnc3ccc2n1C", "CCRIS mutagenicity, Ames/micronucleus/aberration tests", 1],
  ["O=[N+]([O-])c1cccc(Cl)c1Cl", "CCRIS mutagenicity, Ames/micronucleus/aberration tests", 0],
  ["O=c1c(=O)c2c([N+](=O)[O-])ccc3ccc4cccc1c4c32", "CCRIS mutagenicity, Ames/micronucleus/aberration tests", 1],
  ["CN(C)N=O", "CCRIS mutagenicity, Ames/micronucleus/aberration tests", 1],
  ["CC(=O)OC(C)(C)C", "CCRIS mutagenicity, Ames/micronucleus/aberration tests", 0],
  ["O=C/C(Br)=C/c1ccccc1", "CCRIS mutagenicity, Ames/micronucleus/aberration tests", 0],
  ["NC(=O)CCCCC(N)=O", "CCRIS mutagenicity, Ames/micronucleus/aberration tests", 0],
  ["CCCC(=O)O[C@H]1[C@H](C)O[C@@H](O[C@H]2[C@H](N(C)C)[C@@H](O)[C@H](O[C@H]3[C@@H](CC=O)C[C@@H](C)[C@@H](O)/C=C/C=C/C[C@@H](C)OC(=O)C[C@@H](O)[C@@H]3OC)O[C@@H]2C)C[C@@]1(C)OC(=O)CC", "CCRIS mutagenicity, Ames/micronucleus/aberration tests", 0],
  ["C=C(C=O)CCC", "CCRIS mutagenicity, Ames/micronucleus/aberration tests", 1],
  ["Nc1nc2ccccc2[nH]1", "CCRIS mutagenicity, Ames/micronucleus/aberration tests", 0],
  ["C=CC(=O)OCCCC", "CCRIS mutagenicity, Ames/micronucleus/aberration tests", 0],
  ["O=[N+]([O-])c1cc2c(ccc3ccccc32)c2c1C=C[C@H](O)[C@H]2O", "CCRIS mutagenicity, Ames/micronucleus/aberration tests", 1],
  ["Cn1c(N)nc2cc(Cl)ccc21", "CCRIS mutagenicity, Ames/micronucleus/aberration tests", 1],
  ["Cc1ccc(C=O)cc1", "CCRIS mutagenicity, Ames/micronucleus/aberration tests", 0],
  ["CN[C@@H]1[C@H](O[C@H]2[C@H](O[C@H]3[C@H](O)[C@@H](O)[C@H](N=C(N)N)[C@@H](O)[C@@H]3N=C(N)N)O[C@@H](C)[C@]2(O)C=O)O[C@@H](CO)[C@H](O)[C@H]1O", "CCRIS mutagenicity, Ames/micronucleus/aberration tests", 0],
  ["O=c1c(=O)c2cccc3ccc4cccc1c4c32", "CCRIS mutagenicity, Ames/micronucleus/aberration tests", 0],
  ["OCc1ccco1", "CCRIS mutagenicity, Ames/micronucleus/aberration tests", 0],
  ["Fc1c(F)c(Cl)c(F)c(Cl)c1F", "CCRIS mutagenicity, Ames/micronucleus/aberration tests", 0],
  ["Cn1c(N)nc2ccc3ncccc3c21", "CCRIS mutagenicity, Ames/micronucleus/aberration tests", 1],
  ["CC(=O)Nc1ccc(Oc2ccc([N+](=O)[O-])cc2)cc1", "CCRIS mutagenicity, Ames/micronucleus/aberration tests", 1],
  ["CNc1nc2c3cccnc3ccc2n1C", "CCRIS mutagenicity, Ames/micronucleus/aberration tests", 1],
  ["Cn1c(N)nc2cc(O)ccc21", "CCRIS mutagenicity, Ames/micronucleus/aberration tests", 0],
  ["O=NN1CCCCC1", "CCRIS mutagenicity, Ames/micronucleus/aberration tests", 1],
  ["Cc1cc2c(nc1N)[nH]c1ccccc12", "CCRIS mutagenicity, Ames/micronucleus/aberration tests", 1],
  ["Cc1c(O)cc2c(c1O)C(=O)c1ccccc1C2=O", "CCRIS mutagenicity, Ames/micronucleus/aberration tests", 1],
  ["Cn1c(N)nc2ncc(-c3ccccc3)cc21", "CCRIS mutagenicity, Ames/micronucleus/aberration tests", 0],
  ["CCCC(=O)OCc1ccc([N+](=O)[O-])cc1", "CCRIS mutagenicity, Ames/micronucleus/aberration tests", 1],
  ["CC[C@H]1OC(=O)[C@H](C)[C@@H](O[C@H]2C[C@@](C)(OC)[C@@H](O)[C@H](C)O2)[C@H](C)[C@@H](O[C@@H]2O[C@H](C)C[C@H](N(C)C)[C@H]2O)[C@](C)(O)C[C@@H](C)C(=O)[C@H](C)[C@@H](O)[C@]1(C)O", "CCRIS mutagenicity, Ames/micronucleus/aberration tests", 0],
  ["N#Cc1ccc2nc(N)[nH]c2c1", "CCRIS mutagenicity, Ames/micronucleus/aberration tests", 1],
  ["Nc1cc2c3ccccc3ccc2c2ccccc12", "CCRIS mutagenicity, Ames/micronucleus/aberration tests", 1]
]}
